target: K-Ras G12C (Homo sapiens, UniProt P01116, G12C); experiment: K-Ras G12C, SOS1, Raf RBD HTRF assay for inhibition of GTP exchange; conditions: 18 hours preincubation with K-Ras G12C at room temperature; SOS1-mediated GTP exchange
Sequence (P01116 2-188 isoform P01116-2 G12C): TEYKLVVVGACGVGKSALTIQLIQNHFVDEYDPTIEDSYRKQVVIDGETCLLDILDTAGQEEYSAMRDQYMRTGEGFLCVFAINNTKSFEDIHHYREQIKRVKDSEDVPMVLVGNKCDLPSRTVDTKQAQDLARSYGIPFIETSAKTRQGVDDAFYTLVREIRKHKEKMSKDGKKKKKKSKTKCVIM
Exercise: state measured pIC50 for each of the molecules provided.
Field pIC50 (float): negative decimal logarithm of the concentration in molar.

Value lookup for pIC50; key = C=CC(=O)N1CCN(c2nc(OC[C@@H]3CCCN3C)nc3c2C[C@H](C)[C@@H](c2cc(O)cc4ccccc24)C3)[C@@H](C)C1 (single isomer, unassigned) [Example 22a]
7.70

Value lookup for pIC50; key = C=CC(=O)N1CCN(c2ncnc3c2CC[C@H](c2nc(N)cc(C)c2C(F)(F)F)C3)CC1 [Example 26a]
6.74

Value lookup for pIC50; key = C=CC(=O)N1CCN(c2nc(OC[C@@H]3C[C@@H](F)CN3C)nc3c2CC[C@@H](c2cc(O)cc4ccccc24)C3)[C@@H](C)C1 (single isomer, unassigned) [Example 31b]
6.60

Value lookup for pIC50; key = C=C(F)C(=O)N1CCN(c2nc(OC[C@@H]3CCCN3C)nc3c2CC[C@H](c2cc(O)cc4ccccc24)C3)C[C@@H]1CC#N (single isomer, unassigned) [Example 61c]
7.08

Value lookup for pIC50; key = C=CC(=O)N1CCN(c2nc(OC[C@@H]3C[C@H](F)CN3C)nc3c2CC[C@H](c2cc(O)cc4ccccc24)C3)[C@@H](C)C1 (single isomer, unassigned) [Example 30a]
7.96

Value lookup for pIC50; key = C=CC(=O)N1CCN(c2ncnc3c2C[C@@H](C)[C@H](c2cc(CO)ccc2C)C3)CC1 (single isomer, unassigned)
6.41

====

Biological target: K-Ras G12C mutant protein (Homo sapiens, UniProt P01116, G12C)
Construct: K-Ras G12C (residues 2-188) and SOS1 (residues 564-1049) had N-terminal 6-His; made in house; host or cells: E. coli
Sequence (P01116 2-188 isoform P01116-2 G12C): as above
Test: K-Ras G12C HTRF assay
Format: biochemical
Conditions: Table 1; unit or assay not given; several values in one cell
Experimental: In the above definition of R^2, the electrophilic moiety that is capable of forming a covalent bond with a cysteine residue is determined via K-Ras G12C-alkylation studies and Homogeneous Time Resolved Fluorescence (HTRF) assays. The G12C mutation of the K-Ras gene is a change in amino acid from glycine to cysteine at the 12th amino acid. […]
value_kind: pIC50
Field pIC50 (float): negative decimal logarithm of the concentration in molar.

Find the measured pIC50: item C=CC(=O)N1CCN(c2nc(OCCC3CCCN3C)nc3c2CCC(c2cc(O)cc4ccccc24)C3)CC1 (stereo not shown) , target or system K-Ras G12C mutant protein (Homo sapiens, UniProt P01116, G12C).
7.29

Find the measured pIC50: item C=CC(=O)N1CCN(c2nc(OCCCN3CCOCC3)nc3c2CCC(c2cc(O)cc4ccccc24)C3)C(C)C1 (stereo not shown) , target or system K-Ras G12C mutant protein (Homo sapiens, UniProt P01116, G12C).
7.66

Find the measured pIC50: item CN1CCCC1COc1nc2c(c(N3CCN(C(=O)/C=C/CNC45CC(C4)C5)C(CC#N)C3)n1)CCC(c1cccc3ccccc13)C2 (stereo not shown) , target or system K-Ras G12C mutant protein (Homo sapiens, UniProt P01116, G12C).
7.96

Find the measured pIC50: item C=CC(=O)N1CCN(c2nc(OCc3cn(C)cn3)nc3c2CCC(c2cc(O)cc4ccccc24)C3)C(C)C1 (stereo not shown) , target or system K-Ras G12C mutant protein (Homo sapiens, UniProt P01116, G12C).
6.33

Find the measured pIC50: item C=CC(=O)N1CC(C)N(c2nc(OCC3CCCN3C)nc3c2CCC(c2cc(O)cc4ccccc24)C3)C(C)C1 (stereo not shown) , target or system K-Ras G12C mutant protein (Homo sapiens, UniProt P01116, G12C).
7.14

Find the measured pIC50: item C=CC(=O)N1CCN(c2nc(OCC3CCC(=O)N3)nc3c2CCC(c2cc(O)cc4ccccc24)C3)C(C)C1 (stereo not shown) , target or system K-Ras G12C mutant protein (Homo sapiens, UniProt P01116, G12C).
5.85

Find the measured pIC50: item C=CC(=O)N1CCC(C#N)(c2nc(OCC3CCCN3C)nc3c2CCC(c2cc(O)cc4ccccc24)C3)CC1 (stereo not shown) , target or system K-Ras G12C mutant protein (Homo sapiens, UniProt P01116, G12C).
7.06

Find the measured pIC50: item C=CC(=O)N1CCN(c2nc(OCC3CCCN3C)nc3c2CCC(c2cc(O)cc4ccccc24)C3)CC1 (stereo not shown) , target or system K-Ras G12C mutant protein (Homo sapiens, UniProt P01116, G12C).
7.64

Find the measured pIC50: item C=CC(=O)N1CCN(c2ncnc3c2CC(C)C(c2cc(O)cc4ccccc24)C3)CC1 (stereo not shown) , target or system K-Ras G12C mutant protein (Homo sapiens, UniProt P01116, G12C).
6.74

Find the measured pIC50: item C=CC(=O)Oc1cc(C2CCc3c(nc(OCC4CCCN4C)nc3N3CCN(C(=O)C=C)CC3)C2)c2ccccc2c1 (stereo not shown) , target or system K-Ras G12C mutant protein (Homo sapiens, UniProt P01116, G12C).
6.80

Find the measured pIC50: item C=CC(=O)N1CCN(c2nc(OCC3CCCN3C)nc3c2CCC(c2cc(O)cc4ccccc24)C3)C(CC#N)C1 (stereo not shown) , target or system K-Ras G12C mutant protein (Homo sapiens, UniProt P01116, G12C).
7.59

Find the measured pIC50: item C=CC(=O)N1CCN(c2ncnc3c2CC(C(C)C)C(c2cc(O)cc4ccccc24)C3)CC1 (stereo not shown) , target or system K-Ras G12C mutant protein (Homo sapiens, UniProt P01116, G12C).
6.92

Find the measured pIC50: item C=CC(=O)N1CCN(c2ncnc3c2CCC(c2c(C)ccc4cn[nH]c24)C3)CC1 (stereo not shown) , target or system K-Ras G12C mutant protein (Homo sapiens, UniProt P01116, G12C).
6.15

Find the measured pIC50: item C=CC(=O)N1CCN(c2nc(OCC3CCCN3C)nc3c2CC(C)C(c2c(C)ccc4[nH]ncc24)C3)CC1 (stereo not shown) , target or system K-Ras G12C mutant protein (Homo sapiens, UniProt P01116, G12C).
7.62

Find the measured pIC50: item C=CC(=O)Oc1cc(C2CCc3c(nc(OCC4CCCN4C)nc3N3CCN(C(=O)C=C)C(CC#N)C3)C2)c2ccccc2c1 (stereo not shown) , target or system K-Ras G12C mutant protein (Homo sapiens, UniProt P01116, G12C).
6.60

Find the measured pIC50: item C=CC(=O)N1CCN(c2ncnc3c2CCC(c2cc(O)cc4ccccc24)C3)CC1 (stereo not shown) , target or system K-Ras G12C mutant protein (Homo sapiens, UniProt P01116, G12C).
6.70

Find the measured pIC50: item C=CC(=O)N1CC2(CCN(c3nc(OCC4CCCN4C)nc4c3CCC(c3cc(O)cc5ccccc35)C4)CC2)C1 (stereo not shown) , target or system K-Ras G12C mutant protein (Homo sapiens, UniProt P01116, G12C).
7.34

Find the measured pIC50: item C=CC(=O)N1CCN(c2nc(OCC3CCCN3C)nc3c2CCC2(CCCCC2)C3)CC1 (stereo not shown) , target or system K-Ras G12C mutant protein (Homo sapiens, UniProt P01116, G12C).
5.27

Find the measured pIC50: item C=CC(=O)N1CCN(c2ncnc3c2CCC(c2c(C)ccc4[nH]ncc24)C3)CC1 (racemic) , target or system K-Ras G12C mutant protein (Homo sapiens, UniProt P01116, G12C).
6.08

====

Target: K-Ras G12C (Homo sapiens, UniProt P01116, G12C)
Assay: Western blot assay for in cell alkylation of K-Ras G12C (HCC1171 cells)
Conditions: 18 hours at 37° C., 7 point dose response
Protocol: Western Blot Assay for in Cell Alkylation of K-Ras G12C HCC1171 cells were maintained in RPMI1640 supplemented with 10% FBS. Cells were plated in a 96-well plate at 20,000 cells/well and the following day compounds were added to the cells. […] To quantify this affect, the LICOR software was used to draw a rectangle over alkylated and unalkylated bands for each well and measured the total fluorescent intensity (FI) in each of these bands. […]
Sequence (P01116 1-188 isoform P01116-2 G12C): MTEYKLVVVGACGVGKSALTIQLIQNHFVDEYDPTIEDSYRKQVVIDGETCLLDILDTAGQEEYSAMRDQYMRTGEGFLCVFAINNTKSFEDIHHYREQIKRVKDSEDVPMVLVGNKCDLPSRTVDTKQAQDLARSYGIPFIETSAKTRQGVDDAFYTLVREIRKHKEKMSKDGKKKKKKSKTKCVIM
pEC50: −log10 of the molar value.
Lab note: anything with pEC50 at or over 6 counts as TRUE; the rest go in FALSE.

For this compound, is measured pEC50 6 or higher? C=C(F)C(=O)N1CCN(c2nc(OC[C@@H]3C[C@@H](F)CN3C)nc3c2C[C@@H](C)[C@H](c2c(F)c(N)cc(C)c2C(F)(F)F)C3)C[C@@H]1CC#N (single isomer, unassigned) [Example 38b]
TRUE

For this compound, is measured pEC50 6 or higher? C=CC(=O)N1CCN(c2nc(OC[C@@H]3CCCN3C)nc3c2C[C@@H](C)[C@H](c2cccc4c2CCC4)C3)C[C@@H]1CC#N (single isomer, unassigned) [Example 35d]
TRUE

For this compound, is measured pEC50 6 or higher? C=CC(=O)N1CCN(c2nc(OC[C@@H]3CCCN3C)nc3c2CCC(c2cc(O)cc4ccccc24)C3)CC1CC#N (some centres unmarked) [Example 58a]
TRUE

For this compound, is measured pEC50 6 or higher? C=CC(=O)N1CCN(c2ncnc3c2CC[C@@H](c2nc(N)cc(C)c2C(F)(F)F)C3)CC1 [Example 26b]
FALSE

For this compound, is measured pEC50 6 or higher? C=CC(=O)N1CCN(c2nc(OC[C@@H]3CCCN3C)nc3c2C[C@H](C)[C@@H](c2cccc4c2CCC4)C3)C[C@H]1CC#N (single isomer, unassigned) [Example 35a]
TRUE

For this compound, is measured pEC50 6 or higher? C=CC(=O)N1CCN(c2nc(OC[C@@H]3CCCN3C)nc3c2CC[C@H](c2cc(O)cc4ccccc24)C3)C[C@H]1CC#N (single isomer, unassigned) [Example 58c]
TRUE

For this compound, is measured pEC50 6 or higher? C=CC(=O)N1CCN(c2nc(OC[C@@H]3CCCN3C)nc3c2C[C@H](C)[C@@H](c2nc(N)cc(C)c2C(F)(F)F)C3)[C@@H](C)C1 (single isomer, unassigned) [Example 21a]
FALSE

The origin of these recorded values is patent US11760744B2.
